What viability, T/C was measured for each of the following?
# Test system: 855422-203-R-J1-PDC complex spheroid growth;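 further: spheroids exposed to agents for seven days before readout; percent of DMSO vehicle control luminescence viability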
# Assay summary: Anticancer human tumor 855422-203-R-J1-PDC patient-derived bladder carcinoma cell line growth inhibition [AhR]
# Experimental conditions: second compound 10 µM; first compound 3.16 µM; stronger effect = lower value
Numbers only, in %.

[
  {
    "Compound": "Nc1ccn(C2OC(CO)C(O)C2(F)F)c(=O)n1 (stereo unspecified) + CC(CO)NC(=O)c1cc(-c2ccc(Cl)cc2)nn(-c2cnn(C)c2)c1=O",
    "viability, T/C (%)": 14.5
  },
  {
    "Compound": "CC(C)c1c(-c2ccccc2)nc2c(C#N)c[nH]n2c1=O + Cc1ccccc1N=Nc1ccc(NC(=O)c2ccnn2C)c(C)c1",
    "viability, T/C (%)": 76.5
  },
  {
    "Compound": "CC1(C)CCC(CN2CCN(c3ccc(C(=O)NS(=O)(=O)c4ccc(NCC5CCOCC5)c([N+](=O)[O-])c4)c(Oc4cnc5[nH]ccc5c4)c3)CC2)=C(c2ccc(Cl)cc2)C1 + CC(CO)NC(=O)c1cc(-c2ccc(Cl)cc2)nn(-c2cnn(C)c2)c1=O",
    "viability, T/C (%)": 93.9
  },
  {
    "Compound": "NS(=O)(=O)OCC1CC(n2ccc3c(NC4CCc5ccccc54)ncnc32)CC1O (stereo unspecified) + Cc1ccccc1N=Nc1ccc(NC(=O)c2ccnn2C)c(C)c1",
    "viability, T/C (%)": 13.6
  },
  {
    "Compound": "O=C(C=Cc1cccc(S(=O)(=O)Nc2ccccc2)c1)NO + CC(CO)NC(=O)c1cc(-c2ccc(Cl)cc2)nn(-c2cnn(C)c2)c1=O",
    "viability, T/C (%)": 31.8
  }
]

stdin: Supply viability, T/C value. Item: Nc1ccccc1NC(=O)c1ccc(CNC(=O)OCc2cccnc2)cc1 + Cc1ccccc1N=Nc1ccc(NC(=O)c2ccnn2C)c(C)c1
stdout: 61.6
